The values you see were collected from PubChem BioAssay AID1159580.

experiment notes: chemical genetic growth profiling, strain panel (AID 1159580);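 note: tested at 20 µM; growth read once vehicle control cultures reached saturation at 30 °C; 1 = growth at the plate median or of vehicle wells; lower values mean less growth of the strain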
recorded conditions: S. cerevisiae deletion strains, growth OD, locus YEL061C, strain CIN8, hits give low values
In all, about 5,500 compounds went through this assay and about 2,000 (36%) were called active. Inconclusive results (about 18%) are left out. This is one part of the list.
measurement kind: normalized growth
Field format: numeric only.

Q. Please give the measured normalized growth for this compound: CC(C)(C)c1cc(C(=O)NN)n[nH]1
A. 1.01

Q. Which normalized growth is listed for Cc1noc(C)c1C(=O)N1CCOCC1 ?
A. 1.01

Q. Entry under review: COc1ccccc1N1CC(C)(C)C(=O)N(C(=O)c2c(F)cccc2Cl)C1=S . Reported normalized growth?
A. 0.985

Q. Looking for the measured normalized growth of O=[N+]([O-])c1cc(C(F)(F)F)ccc1Sc1ccc(Cl)cc1 , can you help?
A. 1.01

Q. What does the data say about its normalized growth? Entry: C/C(=N/O)c1ccc2c(c1)C(C)(C)CCC2(C)C
A. 0.995

Q. Sample Cn1c(Sc2ccc(C(F)(F)F)cc2[N+](=O)[O-])nnc1C(F)(F)F — what was its normalized growth?
A. 1

Q. Item CC[C@H]1OC(=O)[C@H](C)[C@@H](O[C@H]2C[C@@](C)(OC)[C@@H](O)[C@H](C)O2)[C@H](C)[C@@H](O[C@@H]2O[C@H](C)C[C@H](N(C)C)[C@H]2O)[C@](C)(O)C[C@@H](C)/C(=N/OCOCCOC)[C@H](C)[C@@H](O)[C@]1(C)O has what recorded normalized growth?
A. 1

Q. Query: normalized growth; subject: Cc1onc(-c2c(Cl)cccc2Cl)c1C(=O)N1CCN(c2ncnc3scc(-c4ccccc4)c23)CC1
A. 1.02

Q. Quick one: normalized growth of O=C(c1ccccc1)c1ccc2n1CCC2C(=O)O (configuration not stated) ?
A. 0.994

Q. Which normalized growth is listed for CC(C)C1CCC(C(=O)N[C@@H](Cc2ccccc2)C(=O)O)CC1 (some centres not stated) ?
A. 0.992

Q. Query (compound): CCCc1ccc(-c2nc(-c3ccc(C)cc3)no2)cc1 ; field requested: normalized growth
A. 1.01

Q. Need normalized growth, item COc1ccccc1C1CCN(c2ncnc3scc(-c4ccccc4)c23)CC1
A. 1

Q. Look up normalized growth for this compound: Cn1nccc1NS(=O)(=O)c1ccc(C(C)(C)C)cc1
A. 0.984

Q. Query: normalized growth; subject: Cc1cc(S(=O)(=O)NCCNc2nccc(C(F)(F)F)n2)c(C)cc1Cl
A. 1.02

Q. What does the data say about its normalized growth? Entry: CC(NC(C)(C)C)C(=O)c1cccc(Cl)c1 (configuration not stated)
A. 1.01

Q. Need normalized growth of O=C(O)CC[N+](=O)[O-] , thanks.
A. 0.994

Q. Request the reported normalized growth associated with Nc1nc(Sc2ccc(C(F)(F)F)cc2[N+](=O)[O-])n[nH]1
A. 1.02

====

Field: normalized growth. Provide a value for each of the molecules that follow.
experiment notes: chemical genetic growth profiling, strain panel (AID 1159580);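 note: tested at 20 µM; growth read once vehicle control cultures reached saturation at 30 °C; 1 = growth at the plate median or of vehicle wells; lower values mean less growth of the strain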
recorded conditions: S. cerevisiae deletion strains, growth OD, locus YGL167C, strain pmr1, hits give low values
In all, about 5,500 compounds went through this assay and about 2,000 (36%) were called active. About 18% were inconclusive and are not listed. The list shows a part of the results.
Give a plain numeric answer without units written out.

Q. Entry under review: O=C1C=CC(=O)c2c(O)c(Cl)c(Cl)c(O)c21 . Reported normalized growth?
A. 0.0844

Q. normalized growth for COC1=CC23CCCN2CCc2cc4c(cc2C3C1O)OCO4 (stereo not given) ?
A. 1.03

Q. I have this molecule here, CCC1(C2=NCCN2)Cc2ccccc2O1 (stereo not given) , and I need its recorded normalized growth.
A. 1

Q. Reported normalized growth, molecule CCCc1ncc(C[n+]2ccccc2C)c(N)n1 : ____
A. 0.961

Q. Given the entry CC(=O)OC1CCC23CC1(C)CCC2C(C)(C)CC3OC(C)=O (stereo not given) , report its measured normalized growth.
A. 0.993

Q. Entry CN1CCN(C2=Nc3cc(Cl)ccc3Nc3ccccc32)CC1 has what normalized growth?
A. 0.989

Q. Sample COC(=O)C[C@H]1C(C)(C)[C@@H](OC(C)=O)[C@@H]2CC3=C4CC(=O)O[C@@H](c5ccoc5)[C@]4(C)CCC3[C@@]1(C)C2=O (stereo not given in full) — what was its normalized growth?
A. 1.01

Q. # lookup: normalized growth of CCCN(CCC)c1c([N+](=O)[O-])cc(C(F)(F)F)cc1[N+](=O)[O-]
A. 1.01

Q. normalized growth for C[N+]12CCC(CC1)C(OC(=O)C(O)(c1ccccc1)c1ccccc1)C2 (stereo not given) ?
A. 0.976

Q. # query: normalized growth of entry O=C(O)C1=C(CSc2nnnn2CS(=O)(=O)O)CS[C@@H]2C(NC(=O)[C@H](O)c3ccccc3)C(=O)N12 (stereo not given in full)
A. 0.987

Q. Please look up its normalized growth: CNC(=O)Oc1ccccc1OC(C)C
A. 0.987

Q. Look up normalized growth: C/C(=C\CO)CC[C@H](C)CCC[C@H](C)CCCC(C)C
A. 0.962

Q. Entry C=C(C)C1Cc2c(ccc3c(=O)c4c(oc23)COc2cc(OC)c(OC)cc2-4)O1 (stereo not given) has what normalized growth?
A. 1.01

Q. Any idea what its normalized growth is? The molecule is O=C(Nc1ccc([N+](=O)[O-])cc1Cl)c1cc(Cl)ccc1O
A. 0.606

Q. Consider the molecule CC(C)c1cc2c(c(O)c1O)[C@@]1(C(=O)O)CCCC(C)(C)C1CC2 (stereo not given in full) and give its measured normalized growth.
A. 0.978

Q. I have this molecule here, O=c1c(O)c(-c2ccccc2)oc2ccc3occc3c12 , and I need its recorded normalized growth.
A. 0.919

Q. Entry under review: CC1=C(C(=O)O)N2C(=O)[C@@H](NC(=O)[C@@H](N)c3ccc(O)cc3)[C@H]2SC1 . Reported normalized growth?
A. 1.03

Q. Entry CC(C)=CCC/C(C)=C/CO has what normalized growth?
A. 0.986

Q. Requested read-out: normalized growth. Entry: O=C(O)c1cc(=O)c2ccccc2[nH]1
A. 0.973

Q. So what does the record say about normalized growth for NNCc1ccccc1 ?
A. 0.989

====

I'd appreciate it if you could supply normalized growth values for the items below.
experiment notes: chemical genetic growth profiling, strain panel (AID 1159580);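 note: tested at 20 µM; growth read once vehicle control cultures reached saturation at 30 °C; 1 = growth at the plate median or of vehicle wells; lower values mean less growth of the strain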
recorded conditions: S. cerevisiae deletion strains, growth OD, locus YJL095W, strain BCK1, hits give low values
Among all 5,500 compounds or so, about 2,000 (36%) were called active. Another 18% or so got no clear call; they are omitted. The list shows a part of the results.
Keep it simple and answer with nothing but the number.

Q. # normalized growth lookup, item CC(=O)c1ccc[nH]1
A. 0.988

Q. Looking for the measured normalized growth of Oc1cc2c(cc1O)C(c1ccccc1)CNCC2 (stereo unspecified) , can you help?
A. 0.98

Q. State the recorded normalized growth for this entry: O=C(Nc1cc(Cl)cc(Cl)c1)c1cc(Br)ccc1O
A. 0.76

Q. Suppose we examine the compound CC(C)(C)c1ccc(-c2cc(NC(=O)c3ccc(Cl)cc3)n[nH]2)cc1 ; what normalized growth value has been reported?
A. 0.999

Q. Looking for the measured normalized growth of CC(=O)O[C@H]1CC2CCC3C(CC[C@@]4(C)C3C[C@H]([N+]3(C)CCCCC3)[C@@H]4OC(C)=O)[C@@]2(C)C[C@@H]1N1CCCCC1 (stereo partly specified) , can you help?
A. 0.993

Q. So what's the measured normalized growth for this one? C=CCC1C(=O)N(S(=O)(=O)c2ccc(Cl)cc2)N=C1CCC (stereo unspecified)
A. 0.993

Q. Can you look up the measured normalized growth of CC(=O)c1ccc(Sc2ccccc2)c([N+](=O)[O-])c1 for me?
A. 0.756

Q. Endpoint output: normalized growth of CC(C)c1cccc(C(C)C)c1OC(=O)NC(=O)c1c(Cl)cccc1Cl . Value?
A. 0.956

Q. Any idea what normalized growth was measured for S=C(NCc1cccs1)Nc1cc(Cl)cc(Cl)c1 ?
A. 0.958

Q. // lookup normalized growth for COP(=O)(NC(C)=O)SC (stereo unspecified)
A. 1.01

Q. If you can, please state the reported normalized growth value of COC(=O)CC1C(C)(C)C(=O)C2CC3(O)C4=CC(=O)OC(c5ccoc5)C4(C)CCC3C1(C)C2=O (stereo unspecified) .
A. 1.02

Q. Which measured normalized growth value corresponds to C=C(C)C1Cc2c(ccc(C(=O)O)c2O)O1 (stereo unspecified) ?
A. 1.04

Q. Please look up its normalized growth: O=[N+]([O-])c1ccc(NCc2ccc(Cl)c(Cl)c2)nc1
A. 0.774

Q. Fill in the blank: the reported normalized growth of O=C(/C=C/c1ccccc1)c1c(O)cc(O)cc1O is ____.
A. 1.01

Q. Which normalized growth is listed for O=[N+]([O-])c1ccc(Sc2ccccc2)cc1O ?
A. 0.806

Q. What does the record list as normalized growth for CC(c1cc2ccccc2s1)N(O)C(N)=O (stereo unspecified) ?
A. 0.981
